Where do these numbers come from? They come from ChEMBL document CHEMBL1127433.

For each entry below, report its pKi value.
Target: Adenosine receptor A1 (Rattus norvegicus, UniProt P25099)
Test: Binding affinity for adenosine A1 receptor in vitro using rat brain membranes.
Type: cell membranes
Here pKi is given on a logarithmic scale as minus log10 of the concentration in mol/L.

Data request: Entry under review: O=C(NC1CC1)[C@H]1OC(n2cnc3c(NCCc4cn(CC5CC5)c5ccccc45)ncnc32)[C@H](O)[C@@H]1O (some centres not stated) . Reported pKi?
Data returned: 7.17

Data request: Entry under review: `Cc1c(CCNc2ncnc3c2ncn3[C@@H]2O[C@H](C(=O)NC3CC3)[C@@H](O)[C@H]2O)c2ccccc2n1C1CCCC1` . Reported pKi?
Data returned: 6.05

Data request: Entry under review: `OC[C@H]1O[C@@H](n2cnc3c(NCCc4cn(Cc5ccc(Cl)cc5)c5ccccc45)ncnc32)[C@H](O)[C@@H]1O` . Reported pKi?
Data returned: 7.96

Data request: Entry under review: `CC(C)n1cc(CCNc2ncnc3c2ncn3[C@@H]2O[C@H](C(=O)NC3CC3)[C@@H](O)[C@H]2O)c2ccccc21` . Reported pKi?
Data returned: 6.92

Data request: Entry under review: `O=C(NC1CC1)[C@H]1O[C@@H](n2cnc3c(NCCc4cn(CCN5CCCC5)c5ccccc45)ncnc32)[C@H](O)[C@@H]1O` . Reported pKi?
Data returned: 8.12

Data request: Entry under review: CCNC(=O)[C@H]1OC(n2cnc3c(NCCc4cn(Cc5cc(C)ccc5C)c5ccccc45)ncnc32)[C@H](O)[C@@H]1O (some centres not stated) . Reported pKi?
Data returned: 6.80

Data request: Entry under review: O=C(NC1CC1)[C@H]1OC(n2cnc3c(NCCc4cn(Cc5ccc(Cl)c(Cl)c5)c5ccccc45)ncnc32)[C@H](O)[C@@H]1O (some centres not stated) . Reported pKi?
Data returned: 6.85

###

Target: Adenosine receptor A1 (Rattus norvegicus) (UniProt P25099)
Test: Percent displacement from adenosine A1 receptor at 10e-7 M in rat brain membrane in vitro.
Assay type: cell membranes
measured-attribute: Displacement (%)
Numeric answer only, unit % assumed.

Data request: Entry under review: `Cc1ccc(C)c(Cn2cc(CCNc3ncnc4c3ncn4[C@@H]3O[C@H](C(N)=O)[C@@H](O)[C@H]3O)c3ccccc32)c1` . Reported Displacement?
Data returned: 17

Data request: Entry under review: `COCCn1cc(CCNc2ncnc3c2ncn3[C@@H]2O[C@H](C(=O)NC3CC3)[C@@H](O)[C@H]2O)c2ccccc21` . Reported Displacement?
Data returned: 61

Data request: Entry under review: Cc1ccc(C)c(Cn2c(-c3ccccc3)c(CCNc3ncnc4c3ncn4C3O[C@H](C(=O)NC4CC4)[C@@H](O)[C@H]3O)c3ccccc32)c1 (some centres not stated) . Reported Displacement?
Data returned: 6

Data request: Entry under review: `O=C(NC1CC1)[C@H]1O[C@@H](n2cnc3c(NCCc4cn(Cc5cccnc5)c5ccccc45)ncnc32)[C@H](O)[C@@H]1O` . Reported Displacement?
Data returned: 78

Data request: Entry under review: `O=C(NC1CC1)[C@H]1O[C@@H](n2cnc3c(NCCc4cn(Cc5cccc([N+](=O)[O-])c5)c5ccccc45)ncnc32)[C@H](O)[C@@H]1O` . Reported Displacement?
Data returned: 63

Data request: Entry under review: O=C(NC1CC1)[C@H]1OC(n2cnc3c(NCCc4cn(CC5CC5)c5ccccc45)ncnc32)[C@H](O)[C@@H]1O (some centres not stated) . Reported Displacement?
Data returned: 45

Data request: Entry under review: CSc1ccc2c(c1)c(CCNc1ncnc3c1ncn3C1O[C@H](C(=O)NC3CC3)[C@@H](O)[C@H]1O)cn2Cc1cc(C)ccc1C (some centres not stated) . Reported Displacement?
Data returned: 13

###

Target: Adenosine receptor A1 (Rattus norvegicus, UniProt P25099)
Assay: Binding affinity for adenosine A1 receptor in rat brain membrane
Type: cell membranes
measured-attribute: pKi
Here pKi is given on a logarithmic scale as minus log10 of the concentration in mol/L.

Data request: Entry under review: `O=C(NC1CC1)[C@H]1O[C@@H](n2cnc3c(NCCc4c[nH]c5ccccc45)ncnc32)[C@H](O)[C@@H]1O` . Reported pKi?
Data returned: 8.10

Data request: Entry under review: `O=C(NC1CC1)[C@H]1O[C@@H](n2cnc3c(NCCc4cn(Cc5cccc6ccccc56)c5ccccc45)ncnc32)[C@H](O)[C@@H]1O` . Reported pKi?
Data returned: 6.43

###

Target: Adenosine receptor A1 (Rattus norvegicus, UniProt P25099)
Sequence (P25099 whole entry): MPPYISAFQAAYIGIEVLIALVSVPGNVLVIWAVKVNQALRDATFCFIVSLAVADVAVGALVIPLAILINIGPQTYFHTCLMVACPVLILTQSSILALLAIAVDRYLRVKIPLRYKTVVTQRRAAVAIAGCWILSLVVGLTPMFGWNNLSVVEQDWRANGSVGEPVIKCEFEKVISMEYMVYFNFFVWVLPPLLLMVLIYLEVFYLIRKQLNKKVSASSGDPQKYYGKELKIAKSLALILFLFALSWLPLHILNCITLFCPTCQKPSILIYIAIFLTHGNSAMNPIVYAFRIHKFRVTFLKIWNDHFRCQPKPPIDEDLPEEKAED
Assay: Binding affinity for adenosine A1 receptor in vitro using rat brain membranes.
Assay type: cell membranes
For each entry below, report its Ki value.
Note: state the figure and append the unit.

Data request: Entry under review: O=C(NC1CC1)[C@H]1OC(n2cnc3c(NCCc4cn(Cc5ccc(Cl)cc5)c5ccccc45)ncnc32)[C@H](O)[C@@H]1O (some centres undefined) . Reported Ki?
Data returned: 50 nM

Data request: Entry under review: O=C(NC1CC1)[C@H]1OC(n2cnc3c(NCCc4cn(CCN5CCCCC5)c5ccccc45)ncnc32)[C@H](O)[C@@H]1O (some centres undefined) . Reported Ki?
Data returned: 8.3 nM

Data request: Entry under review: Cc1ccc(C)c(Cn2cc(CCNc3ncnc4c3ncn4C3O[C@H](C(=O)NC4CC4)[C@@H](O)[C@H]3O)c3ccccc32)c1 (some centres undefined) . Reported Ki?
Data returned: 140 nM

Data request: Entry under review: `Cc1ccc(C)c(Cn2cc(CCNc3ncnc4c3ncn4[C@@H]3O[C@H](C(N)=O)[C@@H](O)[C@H]3O)c3ccccc32)c1` . Reported Ki?
Data returned: 510 nM

###

For each entry below, report its Displacement value.
Target: Adenosine A2 receptor (Rattus norvegicus) (UniProt P29276+P30543)
Assay: Percent displacement from adenosine A2 receptor at 10e-5 M in rat striatal membrane in vitro.
Format: cell membranes
Numeric answer only, unit % assumed.

Data request: Entry under review: `Cc1ccc(C)c(Cn2cc(CCNc3ncnc4c3ncn4[C@@H]3O[C@H](C(=O)NC4CC4)[C@@H](O)[C@H]3O)c3cc(C)ccc32)c1` . Reported Displacement?
Data returned: 70

Data request: Entry under review: COc1ccc(Cn2cc(CCNc3ncnc4c3ncn4C3O[C@H](C(=O)NC4CC4)[C@@H](O)[C@H]3O)c3ccccc32)cc1 (some centres undefined) . Reported Displacement?
Data returned: 100

Data request: Entry under review: `O=C(NC1CC1)[C@H]1O[C@@H](n2cnc3c(NCCc4cn(CCN5CCCC5)c5ccccc45)ncnc32)[C@H](O)[C@@H]1O` . Reported Displacement?
Data returned: 95

Data request: Entry under review: CSc1ccc2c(c1)c(CCNc1ncnc3c1ncn3C1O[C@H](C(=O)NC3CC3)[C@@H](O)[C@H]1O)cn2Cc1cc(C)ccc1C (some centres undefined) . Reported Displacement?
Data returned: 76

###

Biological target: Adenosine A2 receptor (Rattus norvegicus) (UniProt P29276+P30543)
Assay: Percent displacement from adenosine A2 receptor at 10e-7 M in rat striatal membrane in vitro.
Format: cell membranes
Conditions: Striatum
measured-attribute: Displacement
Note: state the figure and append the unit.

Data request: Entry under review: `COCCNC(=O)[C@H]1O[C@@H](n2cnc3c(NCCc4cn(Cc5ccc(Cl)cc5)c5ccccc45)ncnc32)[C@H](O)[C@@H]1O` . Reported Displacement?
Data returned: 0%

Data request: Entry under review: O=C(NC1CC1)[C@H]1OC(n2cnc3c(NCCc4cn(Cc5ccc(Cl)c(Cl)c5)c5ccccc45)ncnc32)[C@H](O)[C@@H]1O (some centres undefined) . Reported Displacement?
Data returned: 24%

Data request: Entry under review: CSc1ccc2c(c1)c(CCNc1ncnc3c1ncn3C1O[C@H](C(=O)NC3CC3)[C@@H](O)[C@H]1O)cn2Cc1cc(C)ccc1C (some centres undefined) . Reported Displacement?
Data returned: 8%

Data request: Entry under review: O=C(NC1CC1)[C@H]1OC(n2cnc3c(NCCc4cn(CC5CC5)c5ccccc45)ncnc32)[C@H](O)[C@@H]1O (some centres undefined) . Reported Displacement?
Data returned: 25%

Data request: Entry under review: O=C(NC1CC1)[C@H]1OC(n2cnc3c(NCCc4cn(CCN5CCOCC5)c5ccccc45)ncnc32)[C@H](O)[C@@H]1O (some centres undefined) . Reported Displacement?
Data returned: 20%

Data request: Entry under review: `OC[C@H]1O[C@@H](n2cnc3c(NCCc4cn(Cc5ccc(Cl)cc5)c5ccccc45)ncnc32)[C@H](O)[C@@H]1O` . Reported Displacement?
Data returned: 59%

Data request: Entry under review: COc1ccc2c(c1)c(CCNc1ncnc3c1ncn3C1O[C@H](C(=O)NC3CC3)[C@@H](O)[C@H]1O)cn2Cc1cc(C)ccc1C (some centres undefined) . Reported Displacement?
Data returned: 17%

Data request: Entry under review: Cc1ccc(Cn2cc(CCNc3ncnc4c3ncn4C3O[C@H](C(=O)NC4CC4)[C@@H](O)[C@H]3O)c3ccccc32)cc1C (some centres undefined) . Reported Displacement?
Data returned: 13%

Data request: Entry under review: O=C(NC1CC1)[C@H]1OC(n2cnc3c(NCCc4cn(Cc5ccc(Cl)cc5)c5ccccc45)ncnc32)[C@H](O)[C@@H]1O (some centres undefined) . Reported Displacement?
Data returned: 30%

Data request: Entry under review: O=C(NC1CC1)[C@H]1OC(n2cnc3c(NCCc4cn(CCN5CCCCC5)c5ccccc45)ncnc32)[C@H](O)[C@@H]1O (some centres undefined) . Reported Displacement?
Data returned: 44%

Data request: Entry under review: `Cc1c(CCNc2ncnc3c2ncn3[C@@H]2O[C@H](C(=O)NC3CC3)[C@@H](O)[C@H]2O)c2ccccc2n1C1CCCC1` . Reported Displacement?
Data returned: 6%

Data request: Entry under review: CC(C)(CO)NC(=O)[C@H]1OC(n2cnc3c(NCCc4cn(Cc5ccc(Cl)cc5)c5ccccc45)ncnc32)[C@H](O)[C@@H]1O (some centres undefined) . Reported Displacement?
Data returned: 0%

Data request: Entry under review: Cc1ccc(C)c(Cn2c(-c3ccccc3)c(CCNc3ncnc4c3ncn4C3O[C@H](C(=O)NC4CC4)[C@@H](O)[C@H]3O)c3ccccc32)c1 (some centres undefined) . Reported Displacement?
Data returned: 0%

Data request: Entry under review: `Cc1ccc(C)c(Cn2cc(CCNc3ncnc4c3ncn4[C@@H]3O[C@H](C(N)=O)[C@@H](O)[C@H]3O)c3ccccc32)c1` . Reported Displacement?
Data returned: 0%

Data request: Entry under review: `CC(C)n1cc(CCNc2ncnc3c2ncn3[C@@H]2O[C@H](C(=O)NC3CC3)[C@@H](O)[C@H]2O)c2ccccc21` . Reported Displacement?
Data returned: 14%

Data request: Entry under review: `O=C(NC1CC1)[C@H]1O[C@@H](n2cnc3c(NCCc4cn(CCN5CCCC5)c5ccccc45)ncnc32)[C@H](O)[C@@H]1O` . Reported Displacement?
Data returned: 53%

Data request: Entry under review: O=C(NC1CC1)[C@H]1OC(n2cnc3c(NCCc4cn(Cc5ccc(Cl)s5)c5ccccc45)ncnc32)[C@H](O)[C@@H]1O (some centres undefined) . Reported Displacement?
Data returned: 6%

Data request: Entry under review: CN(C)CCn1cc(CCNc2ncnc3c2ncn3C2O[C@H](C(=O)NC3CC3)[C@@H](O)[C@H]2O)c2ccccc21 (some centres undefined) . Reported Displacement?
Data returned: 51%

Data request: Entry under review: `O=C(NC1CC1)[C@H]1O[C@@H](n2cnc3c(NCCc4cn(C5CCCC5)c5ccccc45)ncnc32)[C@H](O)[C@@H]1O` . Reported Displacement?
Data returned: 28%

Data request: Entry under review: Cc1ccc(C)c(Cn2c(C)c(CCNc3ncnc4c3ncn4C3O[C@H](C(=O)NC4CC4)[C@@H](O)[C@H]3O)c3ccccc32)c1 (some centres undefined) . Reported Displacement?
Data returned: 7%

Data request: Entry under review: O=C(NC1CC1)[C@H]1OC(n2cnc3c(NCCc4cn(Cc5ccccc5)c5ccccc45)ncnc32)[C@H](O)[C@@H]1O (some centres undefined) . Reported Displacement?
Data returned: 41%

Data request: Entry under review: COc1ccc(Cn2cc(CCNc3ncnc4c3ncn4C3O[C@H](C(=O)NC4CC4)[C@@H](O)[C@H]3O)c3ccccc32)cc1 (some centres undefined) . Reported Displacement?
Data returned: 59%

Data request: Entry under review: CN(C)c1ccccc1Cn1cc(CCNc2ncnc3c2ncn3C2O[C@H](C(=O)NC3CC3)[C@@H](O)[C@H]2O)c2ccccc21 (some centres undefined) . Reported Displacement?
Data returned: 5%

Data request: Entry under review: Cc1ccc(Cn2cc(CCNc3ncnc4c3ncn4C3O[C@H](C(=O)NC4CC4)[C@@H](O)[C@H]3O)c3ccccc32)cc1 (some centres undefined) . Reported Displacement?
Data returned: 21%

Data request: Entry under review: Cc1ccc(C)c(Cn2cc(CCNc3ncnc4c3ncn4C3O[C@H](C(=O)NCCN4CCOCC4)[C@@H](O)[C@H]3O)c3ccccc32)c1 (some centres undefined) . Reported Displacement?
Data returned: 0%

Data request: Entry under review: O=C(NC1CC1)[C@H]1OC(n2cnc3c(NCCc4cn(Cc5ccc(Br)cc5F)c5ccccc45)ncnc32)[C@H](O)[C@@H]1O (some centres undefined) . Reported Displacement?
Data returned: 23%

Data request: Entry under review: CCNC(=O)[C@H]1OC(n2cnc3c(NCCc4cn(Cc5cc(C)ccc5C)c5ccccc45)ncnc32)[C@H](O)[C@@H]1O (some centres undefined) . Reported Displacement?
Data returned: 12%

Data request: Entry under review: Cc1ccc(C)c(Cn2cc(CCNc3ncnc4c3ncn4C3O[C@H](C(=O)NC4CC4)[C@@H](O)[C@H]3O)c3ccccc32)c1 (some centres undefined) . Reported Displacement?
Data returned: 9%

Data request: Entry under review: Cn1cc(CCNc2ncnc3c2ncn3C2O[C@H](C(=O)NC3CC3)[C@@H](O)[C@H]2O)c2ccccc21 (some centres undefined) . Reported Displacement?
Data returned: 29%
